# MEASURED_ON: Glutamate receptor ionotropic, AMPA (Rattus norvegicus, UniProt P19490+P19491+P19492+P19493)
# EXPERIMENTAL_DETAILS: Displacement of [3H]CP-526427 from AMPA receptor in rat forebrain membranes
# Format: cell membranes, Membrane
READOUT: IC50 (µM)

Consider the reported IC50 for these molecules:
>  <TEST_SMILES>
Cc1cc(C2=NNC(=O)Cc3cc4c(cc32)OCCO4)ccc1N

>  <UNITS_LABEL>
µM

>  <IC50>
1.8

$$$$
>  <TEST_SMILES>
CCNC(=O)N1N=C(c2ccc(N)cc2)c2cc3c(cc2CC1=O)OCO3

>  <UNITS_LABEL>
µM

>  <IC50>
12

$$$$

(1) Nc1ccc(C2=NNC(=O)Cc3cc4c(cc32)OCCO4)cc1Cl
(2) CCNC(=O)N1N=C(c2ccc(N)cc2)c2cc3c(cc2CC1=O)OCCO3
*Q* Lab notebook, comparison: 1 versus 2 , higher IC50 goes to which? Lab log: write the label of the selected item as the result.
*A* 2

// data source = ChEMBL document CHEMBL1148548
